Here the recorded activity coefficient is given for each entry.
# method.description: activity coefficient (dimensionless); of the first substance listed, at infinite dilution; xn = mol fraction of the nth substance listed
# assay.setup: 323.15 K; Liquid; Chromatography; x1 = 0
Answer with the value's number alone.

Recorded results for 5 molecules are shown here.
molecule	val
CCCCCC [hexane] + CCCCCCCCn1cc[n+](COCCCOC[n+]2ccn(CCCCCCCC)c2C)c1C.O=S(=O)([N-]S(=O)(=O)C(F)(F)F)C(F)(F)F.O=S(=O)([N-]S(=O)(=O)C(F)(F)F)C(F)(F)F	3.74
CC#N [acetonitrile] + N#C[N-]C#N.N#C[N-]C#N.c1ccc(Cn2cc[n+](COCCCOC[n+]3ccn(Cc4ccccc4)c3)c2)cc1	0.99
CC1CCCC1 [methylcyclopentane] + CCCCCCCCn1cc[n+](COCCC)c1C.N#C[N-]C#N	4.37
CCCCCCCCCCC [undecane] + CCCOC[n+]1ccc(N(C)C)cc1.O=S(=O)([N-]S(=O)(=O)C(F)(F)F)C(F)(F)F	55.7
ClC(Cl)(Cl)Cl [tetrachloromethane] + Cn1cc[n+](COCCCOC[n+]2ccn(C)c2)c1.N#C[N-]C#N.N#C[N-]C#N	6.68

Give a short answer stating reported activity coefficient for Cc1cccc(C)c1 [1,3-dimethylbenzene] + CCCCCCCCn1cc[n+](COCCC)c1C.O=S(=O)([N-]S(=O)(=O)C(F)(F)F)C(F)(F)F . 1.02

###

# method.description: activity coefficient (dimensionless); of the first substance listed, at infinite dilution; xn = mol fraction of the nth substance listed
# assay.setup: 333.15 K; Liquid; Chromatography; x1 = 0
experimental.readout: activity coefficient
API note: the answer field is a bare number with no unit suffix.

The examples below pair each entry with its known result.
compound	activity coefficient
C#CCCCC [1-hexyne] + CCCOC[n+]1ccn(Cc2ccccc2)c1.N#C[N-]C#N	4.29
CCCCCC [hexane] + CN(C)c1cc[n+](COCCCOC[n+]2ccc(N(C)C)cc2)cc1.O=S(=O)([N-]S(=O)(=O)C(F)(F)F)C(F)(F)F.O=S(=O)([N-]S(=O)(=O)C(F)(F)F)C(F)(F)F	5.82
CC#N [acetonitrile] + CCCOC[n+]1ccn(C)c1.F[B-](F)(F)F	0.74
CC(C)O [propan-2-ol] + Cn1cc[n+](COCCCOC[n+]2ccn(C)c2)c1.N#C[N-]C#N.N#C[N-]C#N	1.32
CCC(C)=O [butanone] + CCCOC[n+]1ccc(N(C)C)cc1.O=S(=O)([N-]S(=O)(=O)C(F)(F)F)C(F)(F)F	0.49

Could you please provide reported activity coefficient for c1ccccc1 [benzene] + CCCOC[n+]1ccn(Cc2ccccc2)c1.F[B-](F)(F)F ? Thanks! 2

Name the recorded activity coefficient of the item c1ccncc1 [pyridine] + CCCCCCCCn1cc[n+](COCCC)c1C.N#C[N-]C#N in your answer. 0.59

###

# method.description: activity coefficient (dimensionless); of the first substance listed, at infinite dilution; xn = mol fraction of the nth substance listed
# assay.setup: 333.15 K; Liquid; Chromatography; x1 = 0
experimental.readout: activity coefficient
Answer as a number with no unit attached.

Solved cases (2 shown):
compound	val
CCCCCCCCCC [decane] + CCCCCCCCn1cc[n+](COCCCOC[n+]2ccn(CCCCCCCC)c2C)c1C.N#C[N-]C#N.N#C[N-]C#N	19.5
ClC(Cl)(Cl)Cl [tetrachloromethane] + CCCOC[n+]1ccn(Cc2ccccc2)c1.O=S(=O)([N-]S(=O)(=O)C(F)(F)F)C(F)(F)F	1.83

// next entry
Answer with the recorded activity coefficient of Cc1cccc(C)c1 [1,3-dimethylbenzene] + N#C[N-]C#N.N#C[N-]C#N.c1ccc(Cn2cc[n+](COCCCOC[n+]3ccn(Cc4ccccc4)c3)c2)cc1 only. 8.51
